Target Entity: PD-1/PD-L1 (Homo sapiens, UniProt Q9NZQ7)
Construct: TVMV protease site linker (C)
Sequence (Q9NZQ7 18-239): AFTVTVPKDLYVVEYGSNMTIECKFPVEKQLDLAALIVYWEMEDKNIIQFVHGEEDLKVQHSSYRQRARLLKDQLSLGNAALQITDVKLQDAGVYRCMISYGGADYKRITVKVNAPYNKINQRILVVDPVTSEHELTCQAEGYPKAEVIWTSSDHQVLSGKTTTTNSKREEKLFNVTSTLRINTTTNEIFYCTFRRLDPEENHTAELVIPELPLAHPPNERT
Assay Overview: PD-1/PD-L1 Homogenous Time-Resolved Fluorescence (HTRF) binding assay
Measurement Setup: PD-L1-His 10 nM, PD-1-Ig 20 nM
pIC50: −log10 of the molar value.
Hi, to clarify the labels: criterion met covers pIC50 from 9 upward, criterion not met covers anything below 9.

[[record]]
compound = "Cc1c(COc2cc(OCc3cncc(C#N)c3)c(CNCCc3cscn3)cc2Cl)cccc1-c1cccc(OCCCN2CC[C@@H](O)C2)c1C"
class_name = "criterion met"

[[record]]
compound = "Cc1c(COc2cc(OCc3cncc(C#N)c3)c(CNCc3cc[nH]n3)cc2Cl)cccc1-c1cccc(OCC2CCCN(C)C2)c1Cl (stereo not drawn)"
class_name = "criterion not met"

[[record]]
compound = "Cc1c(COc2cc(OCc3cncnc3)c(CNCc3cn[nH]c3)cc2Cl)cccc1-c1cccc(OCCCN2CC[C@@H](O)C2)c1C"
class_name = "criterion not met"

[[record]]
compound = "Cc1c(COc2cc(OCc3cncc(C#N)c3)c(CNCC(C)c3nnn[nH]3)cc2Cl)cccc1-c1cccc(OCCCN2CC[C@@H](O)C2)c1C (stereo partly drawn)"
class_name = "criterion not met"

[[record]]
compound = "Cc1c(COc2cc(OCc3cncc(C#N)c3)c(CNCc3cncs3)cc2Cl)cccc1-c1cccc(OCC2CCCN(C)C2)c1Cl (stereo not drawn)"
class_name = "criterion not met"


* * *

Reported pIC50 is given for each of the following compounds.
Target Entity: PD-1/PD-L1 (Homo sapiens, UniProt Q9NZQ7)
Construct: TVMV protease site linker (C)
Assay Overview: PD-1/PD-L1 Homogenous Time-Resolved Fluorescence (HTRF) binding assay
Measurement Setup: PD-L1-His 10 nM, PD-1-Ig 20 nM
Source text: The ability of the compounds of the invention to bind to PD-L1 was investigated using a PD-1/PD-L1 Homogenous Time-Resolved Fluorescence (HTRF) binding assay. Homogenous Time-Resolved Fluorescence (HTRF) binding assay. The interaction of PD-1 and PD-L1 can be assessed using soluble, purified preparations of the extracellular domains of the two proteins. […]
pIC50: −log10 of the molar value.
Observed Property: pIC50

[[record]]
compound = "Cc1nnc(CNCc2cc(Cl)c(OCc3cccc(-c4cccc(OCC5CCCN(C)C5)c4Cl)c3C)cc2OCc2cncc(C#N)c2)[nH]1 (stereo not drawn) [Example 2604]"
test_value = 8.64

[[record]]
compound = "COc1cc(OCc2cccc(-c3cccc(OCC4CCCN(C)C4)c3Cl)c2C)c(Cl)cc1CNCc1ncc[nH]1 (stereo not drawn) [Example 2057]"
test_value = 8.20

[[record]]
compound = "CC(=O)NC1CCN(CCCOc2cccc(-c3cccc(COc4cc(OCc5cncc(C#N)c5)c(CNc5nnn[nH]5)cc4Cl)c3C)c2C)CC1 [Example 1036]"
test_value = 8.38

[[record]]
compound = "Cc1c(COc2cc(OCc3cncc(C#N)c3)c(CN(C)Cc3cc[nH]n3)cc2Cl)cccc1-c1cccc(OCCCN2CCC(O)(CO)CC2)c1Cl [Example 2016]"
test_value = 9.70

[[record]]
compound = "Cc1c(COc2cc(OCc3cncc(C#N)c3)c(CN(C)C(C)c3nnn[nH]3)cc2Cl)cccc1-c1cccc(OCCCNC[C@H](O)CO)c1Cl (stereo partly drawn) [Example 1034]"
test_value = 9.40

[[record]]
compound = "CC(=O)NC1CCN(CCCOc2cccc(-c3cccc(COc4cc(OCc5cncc(C#N)c5)c(CN(C)CC(C)c5nn[nH]n5)cc4Cl)c3C)c2C)CC1 (stereo not drawn) [Example 1047]"
test_value = 8.62

[[record]]
compound = "Cc1c(COc2cc(OCc3cncc(C#N)c3)c(CNCc3c[nH]cn3)cc2Cl)cccc1-c1cccc(OCCCN2CCC(O)(CO)CC2)c1Cl [Example 2010]"
test_value = 8.68

[[record]]
compound = "CC(=O)NC1CCN(CCCOc2cccc(-c3cccc(COc4cc(OCc5cncc(C#N)c5)c(CN5CCCCC5c5cc[nH]n5)cc4Cl)c3C)c2C)CC1 (stereo not drawn) [Example 1053]"
test_value = 8.12

[[record]]
compound = "Cc1c(COc2cc(OCc3cncc(C#N)c3)c(CN(C)Cc3ncc[nH]3)cc2Cl)cccc1-c1cccc(OCCCN2CCC(O)(CO)CC2)c1Cl [Example 2015]"
test_value = 8.51

[[record]]
compound = "Cc1c(COc2cc(OCc3cncc(C#N)c3)c(CNCc3cnc[nH]3)cc2Cl)cccc1-c1cccc(OC2CCN(C)CC2)c1Cl [Example 2047]"
test_value = 8.46

[[record]]
compound = "Cc1c(COc2cc(OCc3cncc(C#N)c3)c(CNCc3ncc[nH]3)cc2Cl)cccc1-c1cccc(OCCCN2CC[C@@H](O)C2)c1C [Example 2004]"
test_value = 8.39

[[record]]
compound = "Cc1c(COc2cc(OCc3cncc(C#N)c3)c(CNCc3ccccn3)cc2Cl)cccc1-c1cccc(OCCCN2CC[C@@H](O)C2)c1C [Example 2017]"
test_value = 8.68


// data source = patent US20240124417A1
